- Test summary: Pharmacokinetic study in male ICR mice
- Format: in vivo
- Conditions used: mouse, IV 2 mg/kg
Measure name: AUClast (ng·h/mL)
Unit ng·h/mL implied. Number only.

Consider O=C1CC[C@H](N2Cc3cc(N4CCN(CC5CCN(c6ccc([C@@H]7c8ccc(O)cc8CC[C@@H]7c7ccccc7)cc6)CC5)CC4)ccc3C2=O)C(=O)N1 [vepdegestrant, Vepdegestrant] . Its measured AUClast is 6400

---

- Test summary: Metabolic stability in human liver microsomes
- Assay type: in vitro ADME
- Conditions used: liver microsomes, pH 7.4
Measure name: half-life at 1 µM (h)
Unit h implied. Number only.

Consider O=C1CC[C@H](N2Cc3cc(N4CCN(CC5CCN(c6ccc([C@@H]7c8ccc(O)cc8CC[C@@H]7c7ccccc7)cc6)CC5)CC4)ccc3C2=O)C(=O)N1 [vepdegestrant, Vepdegestrant] . Its measured half-life at 1 µM is 13.4

---

- Test summary: pH stability in buffer solutions (pH 2-10) and PBS pH 7.4
- Assay type: physicochemical
- Conditions used: PBS pH 7.4; pH 7.4 (PBS), 37 °C
Measure name: half-life at 0.1 µg/mL (min)
Unit min implied. Number only.

Consider O=C1CC[C@H](N2Cc3cc(N4CCN(CC5CCN(c6ccc([C@@H]7c8ccc(O)cc8CC[C@@H]7c7ccccc7)cc6)CC5)CC4)ccc3C2=O)C(=O)N1 . Its measured half-life at 0.1 µg/mL is 30

---

- Test summary: Pharmacokinetic study in male SD rats
- Type: in vivo
- Conditions used: male, Sprague-Dawley, plasma; rat, PO 5 mg/kg
Measure name: Tmax (h)
Unit h implied. Number only.

Consider O=C1CC[C@H](N2Cc3cc(N4CCN(CC5CCN(c6ccc([C@@H]7c8ccc(O)cc8CC[C@@H]7c7ccccc7)cc6)CC5)CC4)ccc3C2=O)C(=O)N1 . Its measured Tmax is 3.2

---

- Test summary: Pharmacokinetic study in male ICR mice
- Assay type: in vivo
- Conditions used: male, ICR, plasma; mouse, IV 2 mg/kg
Measure name: Tmax (min)
Unit min implied. Number only.

Consider O=C1CC[C@H](N2Cc3cc(N4CCN(CC5CCN(c6ccc([C@@H]7c8ccc(O)cc8CC[C@@H]7c7ccccc7)cc6)CC5)CC4)ccc3C2=O)C(=O)N1 . Its measured Tmax is 3

---

- Test summary: Pharmacokinetic study in male ICR mice
- Format: in vivo
- Conditions used: male, ICR, plasma; mouse, IV 2 mg/kg
Measure name: MRT
A bare number is not enough; add the unit after it.

Consider O=C1CC[C@H](N2Cc3cc(N4CCN(CC5CCN(c6ccc([C@@H]7c8ccc(O)cc8CC[C@@H]7c7ccccc7)cc6)CC5)CC4)ccc3C2=O)C(=O)N1 [vepdegestrant, Vepdegestrant] . Its measured MRT is 4.61 h

---

- Test summary: Pharmacokinetic study in male ICR mice
- Type: in vivo
- Conditions used: mouse, PO 5 mg/kg
Measure name: AUClast (ng·h/mL)
Unit ng·h/mL implied. Number only.

Consider O=C1CC[C@H](N2Cc3cc(N4CCN(CC5CCN(c6ccc([C@@H]7c8ccc(O)cc8CC[C@@H]7c7ccccc7)cc6)CC5)CC4)ccc3C2=O)C(=O)N1 . Its measured AUClast is 2870

---

- Test summary: pH stability in buffer solutions (pH 2-10) and PBS pH 7.4
- Assay type: physicochemical
- Conditions used: pH 4 buffer solution; pH 4, 37 °C
Measure name: half-life at 0.1 µg/mL (min)
Unit min implied. Number only.

Consider O=C1CC[C@H](N2Cc3cc(N4CCN(CC5CCN(c6ccc([C@@H]7c8ccc(O)cc8CC[C@@H]7c7ccccc7)cc6)CC5)CC4)ccc3C2=O)C(=O)N1 . Its measured half-life at 0.1 µg/mL is 46.2

Data provenance is paper PMC11396746.
